Hi! I'm sharing some pIC50 results obtained with LmDHFR (Leishmania major).
Sequence (P07382 whole entry): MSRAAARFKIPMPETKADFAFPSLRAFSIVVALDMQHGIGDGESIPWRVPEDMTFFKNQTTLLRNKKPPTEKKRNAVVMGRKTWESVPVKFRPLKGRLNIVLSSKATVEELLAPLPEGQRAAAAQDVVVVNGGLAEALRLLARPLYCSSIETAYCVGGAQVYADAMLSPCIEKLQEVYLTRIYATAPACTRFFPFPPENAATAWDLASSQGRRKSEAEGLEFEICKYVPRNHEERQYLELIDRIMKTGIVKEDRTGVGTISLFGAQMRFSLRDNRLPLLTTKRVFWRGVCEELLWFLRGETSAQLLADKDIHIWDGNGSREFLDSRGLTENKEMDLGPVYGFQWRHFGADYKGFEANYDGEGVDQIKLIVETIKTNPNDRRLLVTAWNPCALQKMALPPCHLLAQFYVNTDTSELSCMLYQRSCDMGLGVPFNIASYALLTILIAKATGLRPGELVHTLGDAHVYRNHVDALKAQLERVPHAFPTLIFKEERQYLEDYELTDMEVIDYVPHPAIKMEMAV
Friendly reminder that pIC50 comes from taking -log10 of the concentration in mol/L.

Request - read-out pIC50 | tested on LmDHFR (Leishmania major) | compound CCOC(=O)C1CCN(C(=O)c2ccc(N(CC)Cc3cnc4nc(N)nc(N)c4n3)cc2)CC1
6.70

Observed pIC50 on LmDHFR (Leishmania major) for COC(=O)C1CCN(C(=O)c2ccc(N(C)Cc3cnc4nc(N)nc(N)c4n3)cc2)CC1 [Compound 1b, reference compound] , please.
6.52

Form field: pIC50 recorded for CCOC(=O)C1CCN(C(=O)c2ccc(N(C)Cc3cnc4nc(N)nc(N)c4n3)cc2)CC1 with LmDHFR (Leishmania major) (enter value)
7.00

* * *

Target: LmPTR1 (Leishmania major)
Sequence (Q01782 1-288): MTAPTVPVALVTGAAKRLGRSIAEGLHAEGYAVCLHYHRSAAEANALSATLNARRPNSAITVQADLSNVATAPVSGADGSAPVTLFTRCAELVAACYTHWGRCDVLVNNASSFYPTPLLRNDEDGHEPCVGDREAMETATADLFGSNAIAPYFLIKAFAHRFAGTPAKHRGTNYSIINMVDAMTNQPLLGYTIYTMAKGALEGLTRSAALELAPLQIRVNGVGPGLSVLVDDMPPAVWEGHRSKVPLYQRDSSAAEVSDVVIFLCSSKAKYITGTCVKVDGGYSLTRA
METRIC: IC50 (nM)
Express it in nM; write the number only.

Name the recorded IC50 for CN(Cc1cnc2nc(N)nc(N)c2n1)c1ccc(C(=O)N2CCCCC2)cc1 [Compound 4c] .
100

* * *

Biological target: hDHFR (Homo sapiens, UniProt P00374)
Sequence (P00374 whole entry): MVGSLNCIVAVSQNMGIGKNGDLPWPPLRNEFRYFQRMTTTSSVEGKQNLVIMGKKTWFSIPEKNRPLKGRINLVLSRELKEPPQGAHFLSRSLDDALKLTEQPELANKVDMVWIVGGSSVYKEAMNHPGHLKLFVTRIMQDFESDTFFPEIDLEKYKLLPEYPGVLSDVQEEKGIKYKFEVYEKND
METRIC: IC50 (µM)
// note: answer is a bare numeric in µM

What reported IC50 corresponds to Nc1nc(N)c2nc(CNc3cccc4ccccc34)cnc2n1 on hDHFR (Homo sapiens, UniProt P00374)?
4

* * *

Assay: Cytotoxicity on THP-1-derived macrophages, colorimetric MTT assay
Type: cell-based
Conditions: human
The following compounds are listed with their measured CC50 values.

Field request: CC50 | item: COc1ccc(Oc2ccc(CN(C)Cc3cnc4nc(N)nc(N)c4n3)cc2)cc1
12.5 to 25 µM

// lookup CC50 for COc1ccc(Oc2ccc(CN(Cc3ccccc3)Cc3cnc4nc(N)nc(N)c4n3)cc2)cc1
12.5 to 25 µM

Kindly consider the entry below.
Which CC50 reading was recorded for the compound CCN(Cc1cnc2nc(N)nc(N)c2n1)c1ccc(C(=O)c2ccccc2)cc1 ?
25 to 50 µM
